- Test System: Angiotensin II receptor (Rattus norvegicus) (UniProt P29089+P25095+P35351)
- Measurement Description: In vivo inhibition of pressor response to angiotensin II in conscious normotensive rats
- Format: functional, organism-based
Measured Endpoint: ID50 (mg/kg)

>>> readout_number("CCCCc1ncc(/C=C(\\Cc2cccs2)C(=O)O)n1Cc1cc(Cl)c(C(=O)O)cc1Cl")
0.68

P: CCCCc1ncc(CC(Cc2cccs2)C(=O)O)n1Cc1ccc(C(=O)O)cc1 (centres undefined)
Q: CCCCc1ncc(/C=C(\Cc2cccs2)C(=O)O)n1Cc1ccc(C(=O)O)cc1 (stereo in doubt; 2)
R: CCCCc1ncc(/C=C(\Cc2cccs2)C(=O)O)n1Cc1ccccc1OC
QUERY: # rank by ID50, ascending (min first) Output the labels ranked as instructed.
RESULT: Q, P, R
(Q: 0.08 mg/kg, P: 0.24 mg/kg, R: 15 mg/kg)

P: CCCCc1ncc(/C=C(\Cc2cccs2)C(=O)O)n1Cc1ccc(CC(=O)O)cc1
Q: CCCCc1ncc(/C=C(\Cc2cccs2)c2nn[nH]n2)n1Cc1cccc(Cl)c1Cl
R: CCCCc1ncc(/C=C(\Cc2cccs2)C(=O)O)n1Cc1ccc(C(=O)O)cc1Cl
S: CCCCc1ncc(/C=C(\Cc2cccs2)C(=O)O)n1Cc1ccccc1C(F)(F)F
QUERY: Rank order required: ID50, descending. Quick reminder: the answer is the labels in the order asked.
RESULT: Q, S, P, R
(Q: 8 mg/kg, S: 3.4 mg/kg, P: 0.84 mg/kg, R: 0.06 mg/kg)
